Entries below carry reported pIC50 on Human G9a (Homo sapiens, UniProt Q96KQ7).
Sequence (Q96KQ7 786-1210 limits assumed): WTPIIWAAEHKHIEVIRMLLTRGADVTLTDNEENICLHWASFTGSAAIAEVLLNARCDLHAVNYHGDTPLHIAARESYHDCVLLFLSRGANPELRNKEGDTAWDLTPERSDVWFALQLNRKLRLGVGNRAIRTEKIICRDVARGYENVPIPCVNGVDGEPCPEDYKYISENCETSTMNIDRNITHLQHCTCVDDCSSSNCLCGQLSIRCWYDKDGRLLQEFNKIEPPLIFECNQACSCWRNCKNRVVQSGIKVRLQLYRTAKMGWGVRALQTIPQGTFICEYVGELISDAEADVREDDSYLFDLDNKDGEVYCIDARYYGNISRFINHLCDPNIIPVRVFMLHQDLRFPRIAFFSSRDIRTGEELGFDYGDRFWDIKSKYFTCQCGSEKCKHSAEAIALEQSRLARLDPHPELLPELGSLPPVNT
pIC50: −log10 of the molar value.

- Compound: "c1ccc(CN2CCC(Nc3nc(N4CCN(c5ccccn5)CC4)nc4ccccc34)CC2)cc1 [Compound 13]"
  pIC50: "< 3.40"
- Compound: "CN1C(=O)[C@@]23C[C@]4([C@]56C[C@@]78SS[C@@](CO)(C(=O)N7[C@H]5Nc5ccccc56)N(C)C8=O)c5ccccc5N[C@@H]4N2C(=O)[C@]1(CO)SS3 [chaetocin, reference compound]"
  pIC50: 5.10
- Compound: "c1ccc(CN2CCC(Nc3nc(N4CCCC4)nc4ccccc34)CC2)cc1 [Compound 10]"
  pIC50: "< 3.40"
- Compound: "CN1CCCN(c2nc(NC3CCN(Cc4ccccc4)CC3)c3ccccc3n2)CC1 [Compound 4]"
  pIC50: "< 3.40"
- Compound: "c1ccc(CN2CCC(Nc3nc(N4CCN(c5ccccc5)CC4)nc4ccccc34)CC2)cc1 [Compound 14]"
  pIC50: "< 3.40"

====

- Target: Human G9a (Homo sapiens, UniProt Q96KQ7)
- Assay Explanation: G9a assay (3H-AdoMet filter-binding)
- Format: biochemical
- Experimental Conditions: 400.0 μM
Parameter: inhibition at 400 µM (%)

- Entry Smiles: "CN1CCCN(c2nc(NC3CCN(Cc4ccccc4)CC3)c3ccccc3n2)CC1"
  Parameter: "inhibition at 400 µM"
  Reading Unit: "%"
  Observed Value: 23.5
- Entry Smiles: "c1ccc(CN2CCC(Nc3nc(N4CCCC4)nc4ccccc34)CC2)cc1"
  Parameter: "inhibition at 400 µM"
  Reading Unit: "%"
  Observed Value: 37.8
- Entry Smiles: "c1ccc(CN2CCC(Nc3nc(N4CCN(c5ccccc5)CC4)nc4ccccc34)CC2)cc1"
  Parameter: "inhibition at 400 µM"
  Reading Unit: "%"
  Observed Value: 24
- Entry Smiles: "c1ccc(CN2CCC(Nc3nc(N4CCN(c5ccccn5)CC4)nc4ccccc34)CC2)cc1"
  Parameter: "inhibition at 400 µM"
  Reading Unit: "%"
  Observed Value: 14

====

- Target: Human G9a (Homo sapiens, UniProt Q96KQ7)
- Assay Explanation: G9a assay (3H-AdoMet filter-binding)
- Assay type: biochemical
- Experimental Conditions: 100.0 μM
Parameter: inhibition at 100 µM (%)

- Compound: "c1ccc(CN2CCC(Nc3nc(N4CCCC4)nc4ccccc34)CC2)cc1 [Compound 10]"
  Parameter: "inhibition at 100 µM"
  Reading Unit: "%"
  Observed Value: 20.8
- Compound: "CN1CCCN(c2nc(NC3CCN(Cc4ccccc4)CC3)c3ccccc3n2)CC1 [Compound 4]"
  Parameter: "inhibition at 100 µM"
  Reading Unit: "%"
  Observed Value: 21.8
- Compound: "c1ccc(CN2CCC(Nc3nc(N4CCN(c5ccccc5)CC4)nc4ccccc34)CC2)cc1 [Compound 14]"
  Parameter: "inhibition at 100 µM"
  Reading Unit: "%"
  Observed Value: 22.4
- Compound: "c1ccc(CN2CCC(Nc3nc(N4CCN(c5ccccn5)CC4)nc4ccccc34)CC2)cc1 [Compound 13]"
  Parameter: "inhibition at 100 µM"
  Reading Unit: "%"
  Observed Value: 24.9

====

Below, each entry is listed with its recorded selectivity for DNMT3A over G9a inhibition.
- Test system: C-terminal catalytic domain of human DNMT3A (hDNMT3A)
- Assay Explanation: DNMT3A assay (restriction-based fluorescence assay)
- Assay type: biochemical
- Experimental Conditions: G9a IC50 vs DNMT3A EC50
Parameter: selectivity for DNMT3A over G9a inhibition

- Entry Smiles: "c1ccc(CN2CCC(Nc3nc(N4CCN(c5ccccn5)CC4)nc4ccccc34)CC2)cc1"
  Observed Value: "> 40 fold"
- Entry Smiles: "c1ccc(CN2CCC(Nc3nc(N4CCCC4)nc4ccccc34)CC2)cc1"
  Observed Value: "18 fold"
- Entry Smiles: "CN1CCCN(c2nc(NC3CCN(Cc4ccccc4)CC3)c3ccccc3n2)CC1"
  Observed Value: "> 40 fold"
- Entry Smiles: "c1ccc(CN2CCC(Nc3nc(N4CCN(c5ccccc5)CC4)nc4ccccc34)CC2)cc1"
  Observed Value: "> 40 fold"

Taken from paper PMC4014597.
